Reference source for all entries: ChEMBL document CHEMBL3414513

test system: MGC-803; assay: Cytotoxicity against human MGC803 cells after 72 hrs by MTT assay; assay type: functional, cell-based
quantity_name: Activity

1) C=C(C)[C@@H]1CC[C@]2(C(=O)OCCCCN(CC)CC)CC[C@]3(C)[C@H](CC[C@@H]4[C@@]5(C)CCC(=O)C(C)(C)[C@@H]5CC[C@]43C)[C@@H]12 : Dose-dependent effect
2) C=C(C)[C@@H]1CC[C@]2(C(=O)OCCCBr)CC[C@]3(C)[C@H](CC[C@@H]4[C@@]5(C)CCC(=O)C(C)(C)[C@@H]5CC[C@]43C)[C@@H]12 : Dose-dependent effect
3) C=C(C)[C@@H]1CC[C@]2(C(=O)OCCCN3CCCCC3)CC[C@]3(C)[C@H](CC[C@@H]4[C@@]5(C)CCC(=O)C(C)(C)[C@@H]5CC[C@]43C)[C@@H]12 : Dose-dependent effect

----------
system: A-375; assay: Cytotoxicity against human A375 cells after 72 hrs by MTT assay; type: functional, cell-based; settings: A-375, 72 h
# pIC50 values compiled below
Quick note: pIC50 values are minus log10 of concentrations in mol/L.

1) C=C(C)[C@@H]1CC[C@]2(C(=O)OCCN3CCOCC3)CC[C@]3(C)[C@H](CC[C@@H]4[C@@]5(C)CCC(=O)C(C)(C)[C@@H]5CC[C@]43C)[C@@H]12 : 4.98
2) C=C(C)[C@@H]1CC[C@]2(C(=O)OCCN(CC)CC)CC[C@]3(C)[C@H](CC[C@@H]4[C@@]5(C)CCC(=O)C(C)(C)[C@@H]5CC[C@]43C)[C@@H]12 : 4.84
3) C=C(C)[C@@H]1CC[C@]2(C(=O)OCCCCN3CCCC3)CC[C@]3(C)[C@H](CC[C@@H]4[C@@]5(C)CCC(=O)C(C)(C)[C@@H]5CC[C@]43C)[C@@H]12 : 5.07
4) C=C(C)[C@@H]1CC[C@]2(C(=O)OCCCCN3CCCCC3)CC[C@]3(C)[C@H](CC[C@@H]4[C@@]5(C)CCC(=O)C(C)(C)[C@@H]5CC[C@]43C)[C@@H]12 : 5.11
5) C=C(C)[C@@H]1CC[C@]2(C(=O)OCCN3CCCCC3)CC[C@]3(C)[C@H](CC[C@@H]4[C@@]5(C)CCC(=O)C(C)(C)[C@@H]5CC[C@]43C)[C@@H]12 : 4.77
6) C=C(C)[C@@H]1CC[C@]2(C(=O)OCCN3CCN(C(=O)c4c(F)cccc4Cl)CC3)CC[C@]3(C)[C@H](CC[C@@H]4[C@@]5(C)CCC(=O)C(C)(C)[C@@H]5CC[C@]43C)[C@@H]12 : 5.08
7) C=C(C)[C@@H]1CC[C@]2(C(=O)OCCN3CCN(C(=O)/C=C/c4ccccc4)CC3)CC[C@]3(C)[C@H](CC[C@@H]4[C@@]5(C)CCC(=O)C(C)(C)[C@@H]5CC[C@]43C)[C@@H]12 : 5.03

We next turn to a different molecule, shown below.
**Q:** Entry `COc1cccc2c1C(=O)c1c(O)c3c(c(O)c1C2=O)C[C@@](O)(C(=O)CO)C[C@@H]3O[C@H]1C[C@H](N)[C@H](O)[C@H](C)O1` has what pIC50?
**A:** 6.00

----------
test system: MGC-803; assay: Cytotoxicity against human MGC803 cells after 72 hrs by MTT assay; assay type: functional, cell-based
quantity_name: Activity

1. C=C(C)[C@@H]1CC[C@]2(C(=O)OCCN3CCN(C(=O)c4c(Cl)cccc4Cl)CC3)CC[C@]3(C)[C@H](CC[C@@H]4[C@@]5(C)CCC(=O)C(C)(C)[C@@H]5CC[C@]43C)[C@@H]12 : Dose-dependent effect
2. C=C(C)[C@@H]1CC[C@]2(C(=O)OCCN3CCCCC3)CC[C@]3(C)[C@H](CC[C@@H]4[C@@]5(C)CCC(=O)C(C)(C)[C@@H]5CC[C@]43C)[C@@H]12 : Dose-dependent effect
3. CC[C@@]1(O)C(=O)OCc2c1cc1n(c2=O)Cc2cc3cc(O)ccc3nc2-1 [HYDROXYCAMPTOTHECIN] : Dose-dependent effect
